# test: Half life in mouse at 1 mg/kg, iv and 10 mg/kg, po
# Assay type: ADME, organism-based
# details: in vivo
experimental_endpoint: half-life (min)

1. Cc1ncsc1C(=O)N(Cc1cc(=O)[nH]c2c(F)cccc12)c1cccc(Cl)c1 :: 12

---

# assayed_system: Nitric oxide synthase, inducible (Homo sapiens)
# Sequence (P35228 whole entry): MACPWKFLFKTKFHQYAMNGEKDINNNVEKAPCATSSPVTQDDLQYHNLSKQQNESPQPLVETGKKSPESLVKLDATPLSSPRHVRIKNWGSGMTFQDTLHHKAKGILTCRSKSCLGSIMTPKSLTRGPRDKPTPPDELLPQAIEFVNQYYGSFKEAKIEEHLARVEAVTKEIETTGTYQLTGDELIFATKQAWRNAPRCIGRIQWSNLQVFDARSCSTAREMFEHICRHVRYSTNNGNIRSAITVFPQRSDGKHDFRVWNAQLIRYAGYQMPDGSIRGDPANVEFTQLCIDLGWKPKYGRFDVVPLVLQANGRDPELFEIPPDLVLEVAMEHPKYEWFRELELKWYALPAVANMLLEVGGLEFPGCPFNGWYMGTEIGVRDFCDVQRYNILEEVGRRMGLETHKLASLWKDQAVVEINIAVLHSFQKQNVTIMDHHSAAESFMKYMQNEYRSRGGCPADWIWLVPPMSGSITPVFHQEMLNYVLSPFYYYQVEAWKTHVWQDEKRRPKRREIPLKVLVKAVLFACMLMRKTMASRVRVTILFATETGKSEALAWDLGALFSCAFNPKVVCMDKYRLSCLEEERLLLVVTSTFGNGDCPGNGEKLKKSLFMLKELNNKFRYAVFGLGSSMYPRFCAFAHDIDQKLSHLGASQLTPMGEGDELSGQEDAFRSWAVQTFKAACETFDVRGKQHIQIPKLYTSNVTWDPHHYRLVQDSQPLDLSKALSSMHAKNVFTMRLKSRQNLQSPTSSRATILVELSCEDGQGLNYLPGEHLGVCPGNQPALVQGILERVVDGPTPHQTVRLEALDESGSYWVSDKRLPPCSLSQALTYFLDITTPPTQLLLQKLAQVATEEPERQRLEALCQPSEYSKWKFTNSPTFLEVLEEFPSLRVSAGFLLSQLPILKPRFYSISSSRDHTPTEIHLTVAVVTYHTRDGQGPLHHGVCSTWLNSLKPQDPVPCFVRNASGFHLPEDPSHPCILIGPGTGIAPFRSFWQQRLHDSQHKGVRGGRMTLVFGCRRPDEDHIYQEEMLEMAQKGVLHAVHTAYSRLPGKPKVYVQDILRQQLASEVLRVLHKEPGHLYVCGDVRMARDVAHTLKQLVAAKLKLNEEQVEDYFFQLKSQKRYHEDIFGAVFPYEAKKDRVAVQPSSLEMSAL
# test: Inhibition of human iNOS expressed in HEK293 cells assessed as inhibition of nitric oxide production after 18 hrs using 2,3-diaminonaphthalene by fluorescence assay
experimental_endpoint: EC50 (µM)

1) O=c1cc(Cn2c(C3CCC3)nc3nccnc32)c2ccc(F)c(F)c2[nH]1 :: 0.091
2) O=c1cc(Cn2c(-c3ccccn3)nc3ccccc32)c2ccc(F)c(F)c2[nH]1 :: 18
3) Cn1cncc1-c1nc2ccccc2n1Cc1cc(=O)[nH]c2c(F)c(F)ccc12 :: 5.9
4) O=c1cc(Cn2c(C3CCC3)nc3ccccc32)c2ccc(F)c(F)c2[nH]1 :: 0.26
5) O=c1cc(Cn2c(C3CCC3)nc3c(Cl)ccnc32)c2ccc(F)c(F)c2[nH]1 :: 0.27
6) CC(C)c1nc2nccnc2n1Cc1cc(=O)[nH]c2c(F)c(F)ccc12 :: 0.85
7) O=c1cc(Cn2c(C3CCC3)nc3ccncc32)c2ccc(F)c(F)c2[nH]1 :: 0.46
8) O=c1cc(Cn2c(C3CCC3)nc3nccnc32)c2cccc(F)c2[nH]1 :: 0.19
9) O=c1cc(Cn2c(CC3CCCC3)nc3ccccc32)c2ccc(F)c(F)c2[nH]1 :: 1.77
10) O=c1cc(Cn2c(C3CCC3)nc3c(C(F)(F)F)ccnc32)c2ccc(F)c(F)c2[nH]1 :: 0.15
11) O=c1cc(Cn2c(C3CCCC3)nc3nccnc32)c2ccc(F)c(F)c2[nH]1 :: 0.28
12) O=c1cc(Cn2c(C3CC(F)(F)C3)nc3nccnc32)c2cccc(F)c2[nH]1 :: 0.22
13) CC(C)c1nc2ccccc2n1Cc1cc(=O)[nH]c2c(F)c(F)ccc12 :: 0.8
14) CC(C)CCc1nc2ccccc2n1Cc1cc(=O)[nH]c2c(F)c(F)ccc12 :: 1.36
15) COc1ccnc2c1nc(C1CCC1)n2Cc1cc(=O)[nH]c2c(F)c(F)ccc12 :: 0.21
16) O=c1cc(Cn2c(-c3cccnc3)nc3ccccc32)c2ccc(F)c(F)c2[nH]1 :: 9.3
17) O=c1cc(Cn2c(C3CCC3)nc3ncccc32)c2ccc(F)c(F)c2[nH]1 :: 0.59
18) CC(C)Cc1nc2nccnc2n1Cc1cc(=O)[nH]c2c(F)c(F)ccc12 :: 0.088
19) O=c1cc(Cn2c(C3CCCCC3)nc3ccccc32)c2ccc(F)c(F)c2[nH]1 :: 8.9
20) O=c1cc(Cn2c(C3CCC3)nc3cnccc32)c2ccc(F)c(F)c2[nH]1 :: 18
21) O=c1cc(Cn2c(CC3CCC3)nc3ccccc32)c2ccc(F)c(F)c2[nH]1 :: 0.54

---

# test: Half life in rhesus monkey at 10 mg/kg, po
# Format: ADME, organism-based, Macaca mulatta
# Parameters: dose 10 mg/kg, route oral
# details: in vivo
experimental_endpoint: half-life (h)

1. CC(C)Cc1nc2nccnc2n1Cc1cc(=O)[nH]c2c(F)c(F)ccc12.Cl :: 15
2. Cl.O=c1cc(Cn2c(C3CC(F)(F)C3)nc3nccnc32)c2cccc(F)c2[nH]1 :: 6.1
3. Cl.O=c1cc(Cn2c(C3CCC3)nc3nccnc32)c2ccc(F)c(F)c2[nH]1 :: 9
4. Cl.O=c1cc(Cn2c(C3CCC3)nc3nccnc32)c2cccc(F)c2[nH]1 :: 10
